- ASSAYED TARGET: platelet derived growth factor PDGF-BB (UniProt P01127 82-190)
- Sequence (P01127 82-190 limits assumed): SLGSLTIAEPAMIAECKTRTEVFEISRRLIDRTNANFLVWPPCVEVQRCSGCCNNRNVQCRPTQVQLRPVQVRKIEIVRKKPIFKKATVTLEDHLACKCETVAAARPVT
- PROTOCOL DESCRIPTION: cell-based or functional assay
Positions of bridges follow the written chain, without caps; N, C: chain ends. No end group written: not given here.
TEST READOUT: IC50, PDGFR-Y-P (µM)
Form entry: value (µM) — number only.

Known IC50, PDGFR-Y-P results, listed for orientation:
binder="GDLD (designed binder, linker N-C via 3‑aminomethyl‑5‑aminobenzamide; also: four loops on But-Calix calix[4]arene scaffold) [GFB-109]" test_readout="IC50, PDGFR-Y-P" readout_unit=µM assay_value=7.5
binder="GDND (designed binder, linker N-C via 3‑aminomethyl‑5‑aminobenzamide; also: four loops on But-Calix scaffold) [GFB-117]" test_readout="IC50, PDGFR-Y-P" readout_unit=µM assay_value=5.8
binder="GFB-136 (designed binder, also: 3 GDDD loops and 1 GDGY loop on But-Calix scaffold, linker to a chain's N/C-terminus via 3-aminomethyl-5-aminobenzamide) peptide 1: GDDD peptide 2: GDGY" test_readout="IC50, PDGFR-Y-P" readout_unit=µM assay_value=3
binder="PDGD (designed binder, linker N-C via 3‑aminomethyl‑5‑aminobenzamide; also: four loops on But-Calix scaffold) [GFB-119]" test_readout="IC50, PDGFR-Y-P" readout_unit=µM assay_value=20

Here's the next entry for you.
Looking up GFB-132 (designed binder, also: 3 GDGY loops and 1 GDDG loop on But-Calix scaffold, linker to a chain's N/C-terminus via 3-aminomethyl-5-aminobenzamide) peptide 1: GDGY peptide 2: GDDG , I found its IC50, PDGFR-Y-P recorded as 0.4
